Origin of the recorded values: patent US10766952B2

Target: T1, human α-CGRP (Homo sapiens, UniProt P06881)
T1 construct: 1-37 (WT); purchased; host or cells: synthetic peptide
T1 sequence (P06881 83-119 limits assumed): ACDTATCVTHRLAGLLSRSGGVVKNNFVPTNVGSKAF
Assay: Biacore affinity of antibody G1 Fab and variants to human α-CGRP
Format: binding
Conditions: 37° C., Fab, screening mode unless underlined
Reported α-human koff values for the following molecules.
Please answer using the number first and the unit second.

{"molecule": "M50: G1 variant: L1 R28N; L2 G50A,L56T; H2 E54K,A57R; HC-FW3 L99T,A100V (antibody, V domains shown) VH: EVQLVESGGGLVQPGGSLRLSCAASGFTFSNYWISWVRQAPGKGLEWVAEIRSKSDRSATHYAEAVKGRFTISRDNAKNSLYLQMNSLRAEDTAVYYCTVYFDYGLAIQNYWGQGTLVTVSS VL: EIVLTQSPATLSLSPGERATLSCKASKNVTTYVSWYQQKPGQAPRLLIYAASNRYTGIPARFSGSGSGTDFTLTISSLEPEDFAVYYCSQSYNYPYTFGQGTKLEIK", "α-human koff": "0.000406 s⁻¹"}

Alright, here's another molecule for you.
Tell me the measured α-human koff of M82: G1 variant: L1 R28N,T30V; L2 A51H,L56T; H2 A57N; HC-FW3 L991 (printed),A100V (antibody, V domains shown) VH: EVQLVESGGGLVQPGGSLRLSCAASGFTFSNYWISWVRQAPGKGLEWVAEIRSESDNSATHYAEAVKGRFTISRDNAKNSLYLQMNSLRAEDTAVYYCTVYFDYGLAIQNYWGQGTLVTVSS VL: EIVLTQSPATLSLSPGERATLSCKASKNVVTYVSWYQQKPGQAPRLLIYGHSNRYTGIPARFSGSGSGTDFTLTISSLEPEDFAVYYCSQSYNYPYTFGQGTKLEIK , please. 0.000877 s⁻¹
